- tgt: hα7-wt nAChR (Homo sapiens)
- Construct: expressed in transfected cells
- assay.name: Ca2+ flux imaging (FDSS) (Protocol B), PAM activity with choline as agonist
- Type: cell-based
- condition.set: "<5" = no top plateau at maximal concentration
measurement.name: EC50 (nM)
Numbers only, in nM.

Use these answered entries as a reference point.
molecule	EC50 [nM]
CNC(=O)Cn1nc(Nc2cccc(C(F)(F)F)c2)nc1-c1ccc2c(c1)OCCO2 [Compound 1]	251
CNC(=O)Cn1nc(Nc2ccc(F)c(C(F)(F)F)c2)nc1-c1ccc(OC)nc1 [Compound 110]	126
CC(C)Oc1cc(-c2nc(Nc3cccc(C(F)(F)F)c3)nn2CCO)ccn1 [Compound 74]	1260

Batch request: EC50 per item, same order as input.
1. CN(C)C(=O)CCn1nc(Nc2ccc(F)c(C(F)(F)F)c2)nc1-c1ccc(NC2CC2)nc1 [Compound 133]
2. CCNc1cc(-c2nc(Nc3ccc(F)c(C(F)(F)F)c3)nn2C[C@H](C)O)ccn1 [Compound 99]

Result:
1. 100
2. 1000

----------
- tgt: hα7-wt nAChR (Homo sapiens, UniProt P36544)
- Construct: expressed in transfected cells
- Sequence (P36544 23-502): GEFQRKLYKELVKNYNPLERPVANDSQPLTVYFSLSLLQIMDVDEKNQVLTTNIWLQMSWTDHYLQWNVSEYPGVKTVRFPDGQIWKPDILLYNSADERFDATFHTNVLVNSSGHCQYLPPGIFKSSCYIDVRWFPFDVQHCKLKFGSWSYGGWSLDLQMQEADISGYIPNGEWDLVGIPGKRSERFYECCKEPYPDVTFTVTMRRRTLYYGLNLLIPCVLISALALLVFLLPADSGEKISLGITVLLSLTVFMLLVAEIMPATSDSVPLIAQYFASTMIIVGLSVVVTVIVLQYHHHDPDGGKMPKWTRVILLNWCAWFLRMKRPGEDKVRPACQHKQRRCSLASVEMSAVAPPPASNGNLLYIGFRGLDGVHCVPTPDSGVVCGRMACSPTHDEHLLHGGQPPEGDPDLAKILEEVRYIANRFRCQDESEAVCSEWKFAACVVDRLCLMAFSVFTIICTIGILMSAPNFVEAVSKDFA
- assay.name: Ca2+ flux imaging (FLIPR) (Protocol A), PAM activity with choline as agonist
- Format: cell-based
- condition.set: "<5" = no top plateau at maximal concentration
measurement.name: pEC50
Give bare numbers, as −log10 of the molar value.

CN(C)C(=O)CCn1nc(Nc2cccc(C(F)(F)F)c2)nc1-c1ccc2c(c1)OCCO2 6.80

Fill in pEC50 for each of the 4 compounds listed.
1. OCCn1nc(Nc2cccc(C(F)(F)F)c2)nc1-c1cccnc1
2. COc1ccc(Cl)c(Nc2nc(-c3ccc4c(c3)OCCO4)n(CCC(=O)N(C)C)n2)c1
3. FCCn1nc(Nc2cc(F)cc(F)c2)nc1-c1ccnc(C2CC2)c1
4. COCCn1nc(Nc2cccc(C(F)(F)F)c2)nc1-c1ccncc1

Result:
[5.10, 5.50, 5.40, 5.10]

----------
Kindly state melting point for each of the entries shown.
Numbers only, in °C.

OCCn1nc(Nc2cccc(C(F)(F)F)c2)nc1-c1ccnc(N2CCOCC2)c1 167.4
Cc1ncccc1-c1nc(Nc2ccc(F)c(C(F)(F)F)c2)nn1CCC(=O)N(C)C 171.5

Batch of 5 compounds: report melting point for each.
1. COc1cc(-c2nc(Nc3cccc(C(F)(F)F)c3)nn2CCC(=O)N(C)C)cc(Cl)n1
2. CNC(=O)Cn1nc(Nc2cc(OC)cc(C(F)(F)F)c2)nc1-c1ccnc(NC)c1
3. CC(C)NC(=O)Cn1nc(Nc2cccc(OC(F)(F)F)c2)nc1-c1ccc2c(c1)OCCN2C
4. CNC(=O)Cn1nc(Nc2cc(F)c(F)c(F)c2)nc1-c1ccnc(NC)c1
5. COc1cc(Nc2nc(-c3ccnc(C)c3)n(CCC(=O)N(C)C)n2)ccc1F

Result:
1: 177.7; 2: 241.1; 3: 153.3; 4: 277.5; 5: 137.3

----------
Please respond with reported melting point for every item in the list.

COc1ccc(-c2nc(Nc3cccc(OC(F)(F)F)c3)nn2CC(=O)NC2CC2)cc1OC 192.7 to 195.3 °C
Cn1nc(Nc2ccccc2)nc1-c1ccc(Cl)cc1Cl 193 to 194 °C
Cc1cc(C(=O)NCCCn2nc(Nc3cccc(C(F)(F)F)c3)nc2-c2ccncc2)no1 152.9 to 154.9 °C
CNC(=O)Cn1nc(Nc2cccc(C(F)(F)F)c2)nc1-c1ccc2c(c1)OCCO2 206.2 to 207.1 °C

Next compound, please.
Task: Determine from records and report melting point for "CNC(=O)Cn1nc(Nc2cccc(OC(F)(F)F)c2)nc1-c1ccc2c(c1)OCCO2"
Result: 185.8 to 191.3 °C

All figures here come from patent US8143419B2.
